target: Exportin-1 (Homo sapiens); assay: Inhibition of XPO1 in PMA/ionomycin-activated human Jurkat cells expressing IL-2 promoter reporter gene assessed as suppression of IL-2 transcriptional activity incubated for 6 hrs by Bright-Glo Luciferase assay; assay type: cell-based
Sequence (O14980 whole entry): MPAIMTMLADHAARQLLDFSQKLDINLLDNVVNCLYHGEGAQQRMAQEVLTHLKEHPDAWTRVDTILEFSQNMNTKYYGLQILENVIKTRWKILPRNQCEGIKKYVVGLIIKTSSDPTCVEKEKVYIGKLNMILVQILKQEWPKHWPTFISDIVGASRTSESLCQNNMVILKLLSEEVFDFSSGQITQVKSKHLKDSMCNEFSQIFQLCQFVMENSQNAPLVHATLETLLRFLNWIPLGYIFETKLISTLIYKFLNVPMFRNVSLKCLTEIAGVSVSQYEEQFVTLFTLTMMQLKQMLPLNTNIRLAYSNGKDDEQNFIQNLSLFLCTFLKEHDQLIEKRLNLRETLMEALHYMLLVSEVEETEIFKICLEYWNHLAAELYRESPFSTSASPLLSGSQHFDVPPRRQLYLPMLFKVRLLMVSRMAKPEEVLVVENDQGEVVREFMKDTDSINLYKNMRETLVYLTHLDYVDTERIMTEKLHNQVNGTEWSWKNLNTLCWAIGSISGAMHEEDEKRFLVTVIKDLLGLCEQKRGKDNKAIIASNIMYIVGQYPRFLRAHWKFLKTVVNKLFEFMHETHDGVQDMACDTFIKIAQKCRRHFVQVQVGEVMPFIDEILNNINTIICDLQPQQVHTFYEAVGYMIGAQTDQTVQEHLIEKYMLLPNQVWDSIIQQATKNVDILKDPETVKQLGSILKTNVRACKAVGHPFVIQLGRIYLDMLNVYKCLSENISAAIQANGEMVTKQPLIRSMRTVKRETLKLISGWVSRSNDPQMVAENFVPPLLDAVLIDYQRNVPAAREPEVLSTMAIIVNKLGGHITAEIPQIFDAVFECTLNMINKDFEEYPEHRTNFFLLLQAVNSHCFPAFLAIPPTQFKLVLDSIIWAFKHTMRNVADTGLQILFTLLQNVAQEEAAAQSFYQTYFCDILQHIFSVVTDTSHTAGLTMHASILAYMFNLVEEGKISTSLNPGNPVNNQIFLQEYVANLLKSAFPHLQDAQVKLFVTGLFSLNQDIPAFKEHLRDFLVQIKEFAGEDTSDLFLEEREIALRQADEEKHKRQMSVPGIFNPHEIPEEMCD
Each entry falls in a class defined on EC50; the bands are 0 = under 20 nM, 1 = from 20 nM up to 70 nM, 2 = 70 nM and over

Lab note: sort CC1=CC(=O)N(Nc2nc(-c3ccccc3)nn3cccc23)C1=O into the matching EC50 band.
1

Note: place this compound into its band. Item: CC1=CC(=O)N(N(C)c2nc(N3CCCCC3)nn3cccc23)C1=O
1

Determine which band this compound sits in: CC1=CC(=O)N(N(C)c2ccc(C(F)(F)F)c(N3CCC(F)(F)CC3)n2)C1=O
0

Continuing:
Textbook exercise: identify the category of the compound given here, CC1=CC(=O)N(Nc2ccc(C(F)(F)F)c(N3CC4CC(C4)C3)n2)C1=O , according to its measured value.
0

In plain terms, what class is CC1=CC(=O)N(Nc2nc(Cl)nn3cccc23)C1=O ?
2

Which EC50 band matches COCC#Cc1cc(NN2C(=O)C=C(C)C2=O)cc(C(F)(F)F)c1 ?
1

Where would CC1=CC(=O)N(N(C)c2ccc(C(F)(F)F)c(N3CCCC(F)(F)C3)n2)C1=O land among the classes by reported EC50?
0

Place this compound in its band: CC1=CC(=O)N(Nc2nc(N(C)C3CCCC3)nn3cccc23)C1=O
2

====

test system: XPO1; test: Selectivity ratio of EC50 for cytotoxicity against human Jurkat cells assessed as suppression of cell viability to EC50 for inhibition of XPO1 in PMA/ionomycin-activated human Jurkat cells expressing IL-2 promoter reporter gene assessed as suppression of IL-2 transcriptional activity; format: toxicity, cell-based; conditions: read-out: Ratio EC50
reported-metric: selectivity ratio
Number only, no unit.

Name the recorded selectivity ratio for COCC#Cc1cc(NN2C(=O)C=C(C)C2=O)cc(C(F)(F)F)c1 .
11.4

I am curious: what selectivity ratio value has been reported for CC1=CC(=O)N(Nc2nc(Cl)c(C(F)(F)F)cc2F)C1=O ?
3.3

Using the record for CC1=CC(=O)N(Nc2nc(N(C)C3CCCC3)nn3cccc23)C1=O , report its selectivity ratio.
5.3

// query selectivity ratio value for entry CC1=CC(=O)N(N(C)c2nc(N(C)CC3CC3)nn3cccc23)C1=O
6.4

Others:
selectivity ratio for CC1=CC(=O)N(N(C)c2nc(N(C)C3CCCC3)nn3cccc23)C1=O ?
4.4

Quick one: selectivity ratio of CC1=CC(=O)N(Nc2ccc(C(F)(F)F)c(N3CC4(CCC4)C3)n2)C1=O ?
6.3

Which value of selectivity ratio has been reported for CNc1nc(NN2C(=O)C=C(C)C2=O)ccc1C(F)(F)F in the records?
17.9

Name the recorded selectivity ratio for CC1=CC(=O)N(Nc2ccc(C(F)(F)F)c(-n3ccnc3)n2)C1=O .
4.2

Entry CC1=CC(=O)N(Nc2ccc(C(F)(F)F)c(N3CC(F)(F)C3)n2)C1=O has what selectivity ratio?
6

selectivity ratio lookup needed for CN(c1ccc(C(F)(F)F)c(N2CC(F)(F)C2)n1)N1CC=CC1=O , thanks.
1.8

====

biological target: Exportin-1 (Homo sapiens); assay: Inhibition of XPO1 in PMA/ionomycin-activated human Jurkat cells expressing IL-2 promoter reporter gene assessed as suppression of IL-2 transcriptional activity incubated for 6 hrs by Bright-Glo Luciferase assay
Field: label. Allowed values: Met (EC50 < 10 nM) or Not met (EC50 >= 10 nM).

// known answers, use as guide
Criterion: EC50 strictly below 10 nM. Is it met by CC1=CC(=O)N(Nc2nc(-c3ccnn3C)nn3cccc23)C1=O ?
Not met

Please determine if CC1=CC(=O)N(Nc2ccc(C(F)(F)F)c(-c3ccnn3C)n2)C1=O is below 10 nM in terms of EC50.
Not met

***
Hi there! Is EC50 for CC1=CC(=O)N(N(C)c2nc(N3CC(F)(F)C3)nn3cccc23)C1=O below 10 nM, do you know?
Not met

A record lists CC1=CC(=O)N(N(C)c2ccc(C(F)(F)F)c(N3CCCCCC3)n2)C1=O . Is its EC50 below 10 nM?
Met

Is EC50 strictly under 10 nM for the entry CN(c1ccc(C(F)(F)F)c(N2CC(F)(F)C2)n1)N1CC=CC1=O ?
Not met

Find out if reported EC50 for CC1=CC(=O)N(Nc2ccc(C(F)(F)F)c(N3CCCC3)n2)C1=O is less than 10 nM
Met

Determine if CC1=CC(=O)N(Nc2nc(Cl)c(C(F)(F)F)cc2F)C1=O shows EC50 strictly lower than 10 nM.
Met

Field: below-cutoff. Rule: recorded EC50 strictly less than 10 nM. Subject: CC1=CC(=O)N(Nc2ccc(C(F)(F)F)c(C3CCCC3)n2)C1=O
Not met

Does this molecule meet the criterion EC50 < 10 nM? CC1=CC(=O)N(Nc2ccc(C(F)(F)F)c(N3CCCC3=O)n2)C1=O
Not met

Given the entry CC1=CC(=O)N(Nc2ccc(C(F)(F)F)c(Cl)c2)C1=O , would its reported EC50 be below 10 nM?
Met
